Data provenance is PubChem BioAssay (NCI).

- Test system: NCI-H23 lung
- protocolNotes: NCI tumour cell line growth inhibition, 48 h
Where a SMILES comes first, the peptide text is derived from it. The star is where a group is joined. Boc = CC(C)(C)OC(=O)*; OBn = c1ccc(CO*)cc1; Bn = c1ccc(C*)cc1
experimentalReadout: TGI (µM)

INSERT INTO measurements (molecule, comparisonoperator, numericreadout) VALUES
  ('CC(C)CC(NC(=O)C(Cc1ccccc1)NC(=O)C(COCc1ccccc1)NC(=O)OC(C)(C)C)C(=O)OCc1ccccc1 (stereo not drawn) (Boc-Ser(Bn)-Phe-Leu-OBn; configuration not given here)', '=', 43.2),
  ('COc1cc(/C=C\c2ccc(SC)cc2)cc(OC)c1OC', '=', 0.408),
  ('O=Cc1ccc(C(F)(F)F)cc1.[C-]#[O+].[C-]#[O+].[C-]#[O+].[Cr]', '>', 100),
  ('CC(=O)c1ccc2c(c1)CC1(C2)Cc2cc3c(cc2C1)C(=O)CC3 (configuration not stated)', '=', 14.7),
  ('OC(Cn1cncn1)(Cn1cncn1)c1ccc(Cl)cc1Cl', '>', 100),
  ('CC1OC(OC2C(CO)OC(O[C@H]3CC[C@@]4(C)C(=CC[C@H]5[C@@H]6C[C@@H]7O[C@](O)(CC[C@@H](C)COC8OC(CO)C(O)C(O)C8O)[C@@H](C)[C@@H]7[C@@]6(C)CC[C@@H]54)C3)C(OC3OC(C)C(O)C(O)C3O)C2O)C(O)C(O)C1O (some centres not stated)', '=', 10.3),
  ('CC1(C)COC(c2cccc(C3=NC(C)(C)CO3)c2)=N1', '>', 100),
  ('CCCNc1nc(-c2ccc(OC)cc2)nc2ccccc12', '=', 45.9),
  ('N=C(/C=C/c1ccc(-c2cn3cc(/C=C/C(=N)N4CCOCC4)ccc3n2)cc1)N1CCOCC1', '>', 100),
  ('Cc1cc2c(=O)cc(-c3ccc(Cl)cc3)oc2c(C(=O)O)c1C', '>', 100),
  ('COc1ccc2c(c1)CCC(CN1CCN(CCOC(c3ccc(F)cc3)c3ccc(F)cc3)CC1)=C2', '=', 38.2),
  ('Cc1ccccc1NC(=O)c1[nH]c(=S)nc(N)c1-c1ccccc1C', '>', 100),
  ('O=C1c2cccc3cccc(c23)C(=O)N1CCCCOc1ccc(-c2nc3ccc(N4CCOCC4)cc3[nH]2)cc1', '=', 23.5),
  ('O=C(O)/C(Cl)=C(/Cl)C(=O)Nc1cccc(Cl)c1', '=', 36.4),
  ('COc1ccc(C2CC(c3cc(OC)c(OC)c(OC)c3)=NN2)cc1 (configuration not stated)', '>', 100),
  ('COc1ccc2cc(C(=O)NCCc3ccccc3)ccc2c1OC', '>', 100),
  ('CCCCOC(=O)N[C@H]1CCc2cc(OC)c(OC)c(OC)c2-c2ccc(SC)c(=O)cc21', '=', 8.09);
